Molecular target: BCRP (Homo sapiens, UniProt Q9UNQ0)
Sequence (Q9UNQ0 whole entry): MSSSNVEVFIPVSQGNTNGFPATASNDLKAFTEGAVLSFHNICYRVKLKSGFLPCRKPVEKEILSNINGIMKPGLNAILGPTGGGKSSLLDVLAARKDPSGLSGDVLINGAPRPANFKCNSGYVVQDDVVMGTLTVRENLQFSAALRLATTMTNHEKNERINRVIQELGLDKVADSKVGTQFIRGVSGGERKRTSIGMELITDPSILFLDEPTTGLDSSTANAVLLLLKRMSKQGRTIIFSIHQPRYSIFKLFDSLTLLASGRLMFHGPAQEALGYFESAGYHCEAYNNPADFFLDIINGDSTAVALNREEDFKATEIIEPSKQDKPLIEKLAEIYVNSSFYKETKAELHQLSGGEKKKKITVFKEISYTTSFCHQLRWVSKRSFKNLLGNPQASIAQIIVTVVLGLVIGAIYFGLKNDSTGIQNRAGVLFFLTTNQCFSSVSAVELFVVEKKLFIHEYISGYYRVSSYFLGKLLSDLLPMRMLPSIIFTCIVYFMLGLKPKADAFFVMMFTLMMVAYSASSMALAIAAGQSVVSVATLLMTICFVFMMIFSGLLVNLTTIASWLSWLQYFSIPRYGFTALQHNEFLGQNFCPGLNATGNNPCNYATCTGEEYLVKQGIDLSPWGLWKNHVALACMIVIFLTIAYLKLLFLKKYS
Assay: In vitro BCRP inhibition, HEK293-BCRP membrane vesicles, rosuvastatin probe
Assay type: biochemical
Please go through the items and note down their pIC50.
The value called pIC50 is obtained by taking minus log10 of the concentration in mol/L.

Item under review: COc1cc(Nc2ncc(F)c(Nc3ccc4c(n3)N(COP(=O)(O)O)C(=O)C(C)(C)O4)n2)cc(OC)c1OC [Fostamatinib] . Reported pIC50?
5.70

Item under review: CNC(=O)c1ccc(-c2cnc3ncc(Cc4ccc5ncccc5c4)n3n2)cc1F [Capmatinib] . Reported pIC50?
6.16

Item under review: CC[C@H]1[C@@H](O)[C@@H]2[C@H](CC[C@]3(C)[C@@H]([C@H](C)CCC(=O)O)CC[C@@H]23)[C@@]2(C)CC[C@@H](O)C[C@@H]12 [Obeticholic acid] . Reported pIC50?
5.39

Item under review: CC(O)c1cc(C(=O)N[C@@H](C)Cn2ccc(-c3ccc(C#N)c(Cl)c3)n2)[nH]n1 (stereo partly drawn) [Darolutamide] . Reported pIC50?
7.05

Item under review: COC(=O)N[C@H](C(=O)N1CCC[C@H]1c1nc(-c2ccc(-c3ccc(-c4c[nH]c([C@@H]5CCCN5C(=O)[C@@H](NC(=O)OC)C(C)C)n4)cc3)cc2)c[nH]1)C(C)C [Daclatasvir] . Reported pIC50?
5.96

Item under review: O=C(O)C[C@H]1CC[C@H](c2ccc(-c3ccc(Nc4ccc(C(F)(F)F)nc4)cn3)cc2)CC1 [Pradigastat] . Reported pIC50?
6.15
